- MEASUREMENT_TARGET: α2 subtype containing GABA-A receptors (Homo sapiens, UniProt P18507+P47869)
- Construct: expressed in transfected cells; host or cells: Xenopus laevis oocytes, cRNA injected
- Sequence (P47869 29-451): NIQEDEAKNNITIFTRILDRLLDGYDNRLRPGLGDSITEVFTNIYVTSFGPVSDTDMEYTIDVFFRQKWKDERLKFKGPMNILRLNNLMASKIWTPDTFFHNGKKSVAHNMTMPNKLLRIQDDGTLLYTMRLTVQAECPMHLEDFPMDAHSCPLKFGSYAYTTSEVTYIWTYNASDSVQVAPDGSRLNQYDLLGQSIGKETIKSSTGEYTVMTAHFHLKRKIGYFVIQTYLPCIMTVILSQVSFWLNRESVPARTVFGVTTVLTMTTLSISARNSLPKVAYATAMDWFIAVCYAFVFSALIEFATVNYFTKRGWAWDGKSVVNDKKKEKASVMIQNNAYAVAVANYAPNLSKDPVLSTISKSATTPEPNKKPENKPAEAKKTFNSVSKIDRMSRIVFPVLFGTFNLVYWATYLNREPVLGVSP
- Sequence (P28472 26-473 partner): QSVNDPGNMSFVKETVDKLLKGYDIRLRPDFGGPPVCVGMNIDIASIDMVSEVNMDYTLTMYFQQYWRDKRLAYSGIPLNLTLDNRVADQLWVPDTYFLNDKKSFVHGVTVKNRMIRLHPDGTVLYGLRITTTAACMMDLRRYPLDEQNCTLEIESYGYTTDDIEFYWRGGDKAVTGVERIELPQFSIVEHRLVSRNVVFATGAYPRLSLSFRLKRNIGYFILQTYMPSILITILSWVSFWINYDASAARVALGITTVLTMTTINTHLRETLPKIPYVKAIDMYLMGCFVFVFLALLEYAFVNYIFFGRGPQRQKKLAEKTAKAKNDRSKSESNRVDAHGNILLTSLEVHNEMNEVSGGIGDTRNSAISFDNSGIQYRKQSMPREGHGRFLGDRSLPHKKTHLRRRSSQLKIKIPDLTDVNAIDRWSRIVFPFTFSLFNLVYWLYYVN
- Sequence (P18507 40-475): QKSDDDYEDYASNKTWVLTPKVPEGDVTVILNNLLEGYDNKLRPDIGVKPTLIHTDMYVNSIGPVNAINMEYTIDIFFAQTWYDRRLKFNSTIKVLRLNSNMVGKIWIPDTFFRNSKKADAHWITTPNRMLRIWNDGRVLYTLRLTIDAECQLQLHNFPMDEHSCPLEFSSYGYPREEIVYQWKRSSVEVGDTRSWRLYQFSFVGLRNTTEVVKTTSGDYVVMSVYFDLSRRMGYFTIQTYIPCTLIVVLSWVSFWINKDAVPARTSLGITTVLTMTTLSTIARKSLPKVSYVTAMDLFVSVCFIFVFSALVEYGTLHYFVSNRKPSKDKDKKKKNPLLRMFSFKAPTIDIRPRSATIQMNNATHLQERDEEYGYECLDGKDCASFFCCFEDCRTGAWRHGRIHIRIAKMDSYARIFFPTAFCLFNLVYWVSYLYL
- PROTOCOL_TEXT: Two-electrode voltage clamp electrophysiology in Xenopus oocytes, potentiation of GABA EC20 response, α2
- Format: cell-based
- MEASUREMENT_SETUP: 100 nM compound, read-out: Percentage of potentiation alpha2
OBSERVATION_TYPE: activation at 0.1 µM

>>> df
                                 mol_smiles      observation_type  endpoint_result
0  Cc1nnc(Cc2c(-c3ccccc3)nc3ccc(Cl)cn23)[nH]1  activation at 0.1 µM            ≥ 50%
1  CN(CCO)c1cncc(Cc2c(-c3ccc(Cl)cc3)nc3ccccn23)n1  activation at 0.1 µM        10 to 50%
2  CN(C)CCNC1=CC(=O)N(Cc2c(-c3ccc(Br)cc3)nc3ccccn23)C1  activation at 0.1 µM        10 to 50%
3   Cn1ncnc1Cc1c(-c2ccc(F)cc2)nc2ccc(F)cn12  activation at 0.1 µM            ≥ 50%
4  O=c1[nH]c(=O)n(Cc2c(-c3ccc(Cl)cc3)nc3ccccn23)cc1F  activation at 0.1 µM        10 to 50%
